Biological target: AMP-activated protein kinase, AMPK (Homo sapiens) (UniProt P54646+O43741+P54619+Q9UGJ0+Q9Y478+Q13131+Q9UGI9)
Experiment: AMP-dependent Kinase enzyme assay. An in vitro enzyme assay that detects ADP turnover that is directly proportional to AMPK activity. This uses naive AMPK that is activated during the assay with MK-8722
Format: functional
Parameters: scale not given: direction of the effect not stated beside the values
Settings: 30 µM

compound: CC1CCN(S(=O)(=O)NCc2ccccc2Cn2cncn2)CC1
Percent Effect / %: 6.66
//
compound: Cn1ncc2c1CCCC2NCc1cc(Br)cs1 (stereo unspecified)
Percent Effect / %: 0.777
//
compound: Cn1cc(-c2nc(CN3CCN(CCO)CC3)cs2)cn1
Percent Effect / %: 4.54
//
compound: O=C(Nc1cccc(OCc2ccc(F)cc2)c1)C1COCCO1 (stereo unspecified)
Percent Effect / %: 0.674
//
compound: COc1ccccc1OC1(C(=O)O)CCN(c2nccnc2C)CC1
Percent Effect / %: -1.61
//
compound: CCn1nc2c(cc1=O)CN(Cc1nc3ccccc3c(=O)[nH]1)CC2
Percent Effect / %: -24.8

----------
Reported Percent Effect values follow for various compounds
Molecular target: Tyrosyl-tRNA synthetase, putative (Trypanosoma cruzi (strain CL Brener)) (UniProt Q4DSP6)
Sequence (Q4DSP6 as listed by the source): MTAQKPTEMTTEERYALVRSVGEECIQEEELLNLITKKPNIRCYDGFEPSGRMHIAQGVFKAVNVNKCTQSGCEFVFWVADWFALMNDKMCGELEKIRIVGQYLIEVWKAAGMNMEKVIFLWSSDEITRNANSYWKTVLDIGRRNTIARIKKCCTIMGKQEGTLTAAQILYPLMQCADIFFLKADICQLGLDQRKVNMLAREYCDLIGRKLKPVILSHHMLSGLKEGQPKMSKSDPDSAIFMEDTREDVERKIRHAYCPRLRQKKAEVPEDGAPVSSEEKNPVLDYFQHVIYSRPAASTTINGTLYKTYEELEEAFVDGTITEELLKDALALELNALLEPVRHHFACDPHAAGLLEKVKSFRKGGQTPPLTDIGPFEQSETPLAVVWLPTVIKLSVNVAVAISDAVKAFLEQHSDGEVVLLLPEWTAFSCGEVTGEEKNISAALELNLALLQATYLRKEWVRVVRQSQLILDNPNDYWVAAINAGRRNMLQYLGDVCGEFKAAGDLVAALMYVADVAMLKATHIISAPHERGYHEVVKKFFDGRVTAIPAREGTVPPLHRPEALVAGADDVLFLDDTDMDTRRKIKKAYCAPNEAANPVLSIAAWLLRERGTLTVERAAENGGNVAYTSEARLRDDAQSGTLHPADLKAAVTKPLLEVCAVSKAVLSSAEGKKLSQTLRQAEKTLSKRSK
Test: Trypanosoma cruzi tyrosyl tRNA synthetase (TcYRS) SOP
Type: functional
Parameters: scale not given: direction of the effect not stated beside the values
Conditions: 30 µM
metric name: Percent Effect (%)

compound: Cc1ccc(NC2CCN(C(=O)CCNS(C)(=O)=O)CC2)nn1
measured on: Tyrosyl-tRNA synthetase, putative (Trypanosoma cruzi (strain CL Brener)) (UniProt Q4DSP6)
observed result: 6.1

compound: COCCO[C@@H]1CCN(C(=O)c2ccc(C)o2)[C@@H]1Cc1cnn(C)c1
measured on: Tyrosyl-tRNA synthetase, putative (Trypanosoma cruzi (strain CL Brener)) (UniProt Q4DSP6)
observed result: -1.22

compound: Cc1nc(N2CCCC2)nc2c1CCN(C(=O)CC1CC1)CC2
measured on: Tyrosyl-tRNA synthetase, putative (Trypanosoma cruzi (strain CL Brener)) (UniProt Q4DSP6)
observed result: 10.3

compound: Cc1cnn(CC2CN(CC(=O)Nc3sccc3C#N)CCO2)c1 (centres undefined)
measured on: Tyrosyl-tRNA synthetase, putative (Trypanosoma cruzi (strain CL Brener)) (UniProt Q4DSP6)
observed result: 7.32

compound: CCC(CNC(=O)Nc1cnn(CC)c1)N1CCCC1 (centres undefined)
measured on: Tyrosyl-tRNA synthetase, putative (Trypanosoma cruzi (strain CL Brener)) (UniProt Q4DSP6)
observed result: 16.5

compound: NCCn1nc(C2CCN(C(=O)CC3CCCCC3)C2)c2nccnc21 (centres undefined)
measured on: Tyrosyl-tRNA synthetase, putative (Trypanosoma cruzi (strain CL Brener)) (UniProt Q4DSP6)
observed result: 8.97

compound: Clc1ccccc1CN1CCc2nc(C3CCCCN3)ncc2C1 (centres undefined)
measured on: Tyrosyl-tRNA synthetase, putative (Trypanosoma cruzi (strain CL Brener)) (UniProt Q4DSP6)
observed result: 3.85

compound: CN(CCN1CCOCC1)C(=O)CCCc1ccccc1
measured on: Tyrosyl-tRNA synthetase, putative (Trypanosoma cruzi (strain CL Brener)) (UniProt Q4DSP6)
observed result: 5.2

compound: Cn1cc(CN2CC3(CCN(C(=O)c4cscn4)C3)C2)cn1
measured on: Tyrosyl-tRNA synthetase, putative (Trypanosoma cruzi (strain CL Brener)) (UniProt Q4DSP6)
observed result: 16.1

compound: CC(C)c1ccc(C(C)NC(=O)N2CCC(n3cncn3)CC2)cc1 (centres undefined)
measured on: Tyrosyl-tRNA synthetase, putative (Trypanosoma cruzi (strain CL Brener)) (UniProt Q4DSP6)
observed result: 8.86

compound: O=C(c1cc[nH]n1)N1CCC(Nc2cccnn2)CC1
measured on: Tyrosyl-tRNA synthetase, putative (Trypanosoma cruzi (strain CL Brener)) (UniProt Q4DSP6)
observed result: 11.8

compound: COc1ccc(C(CNC(=O)Nc2cn[nH]c2)N2CCOCC2)cc1 (centres undefined)
measured on: Tyrosyl-tRNA synthetase, putative (Trypanosoma cruzi (strain CL Brener)) (UniProt Q4DSP6)
observed result: 25.9

compound: CN(Cc1ccco1)C[C@H]1OC[C@@H]2CCN(Cc3nccs3)C[C@@H]21
measured on: Tyrosyl-tRNA synthetase, putative (Trypanosoma cruzi (strain CL Brener)) (UniProt Q4DSP6)
observed result: 10

compound: Cc1ccc(NC2CCN(C(=O)c3cccn3C)CC2)nn1
measured on: Tyrosyl-tRNA synthetase, putative (Trypanosoma cruzi (strain CL Brener)) (UniProt Q4DSP6)
observed result: 24.4

compound: O=C(c1ccncc1)N1CCC(c2nc(O)cc(-c3ccncc3)n2)C1 (centres undefined)
measured on: Tyrosyl-tRNA synthetase, putative (Trypanosoma cruzi (strain CL Brener)) (UniProt Q4DSP6)
observed result: 14.1

compound: CN(C)C(=O)[C@@H]1CCO[C@@H]2CCN(CCc3ccccc3)C[C@@H]21
measured on: Tyrosyl-tRNA synthetase, putative (Trypanosoma cruzi (strain CL Brener)) (UniProt Q4DSP6)
observed result: 15.8

compound: O=C1CC[C@H]2[C@H](CCN2C(=O)C2CCCO2)N1CCN1CCCC1 (some centres undefined)
measured on: Tyrosyl-tRNA synthetase, putative (Trypanosoma cruzi (strain CL Brener)) (UniProt Q4DSP6)
observed result: 0

compound: COCc1noc(-c2ccc(N(C)Cc3cc(C)no3)nc2)n1
measured on: Tyrosyl-tRNA synthetase, putative (Trypanosoma cruzi (strain CL Brener)) (UniProt Q4DSP6)
observed result: 7.32

compound: COCC(=O)NCCn1ccc2c(OC)cccc21
measured on: Tyrosyl-tRNA synthetase, putative (Trypanosoma cruzi (strain CL Brener)) (UniProt Q4DSP6)
observed result: 15.4

compound: Cc1cccnc1NC(=O)NCc1ccc(N2CCNC(=O)C2)cc1
measured on: Tyrosyl-tRNA synthetase, putative (Trypanosoma cruzi (strain CL Brener)) (UniProt Q4DSP6)
observed result: 34.1

compound: Cn1nc(CNC(=O)C2CCCC2)cc1C1CC1
measured on: Tyrosyl-tRNA synthetase, putative (Trypanosoma cruzi (strain CL Brener)) (UniProt Q4DSP6)
observed result: 16.7

compound: O=C(c1cscn1)N1CCC2(CCN(Cc3cccs3)CC2)C1
measured on: Tyrosyl-tRNA synthetase, putative (Trypanosoma cruzi (strain CL Brener)) (UniProt Q4DSP6)
observed result: 15.4

compound: Cn1cccc1C(=O)N1CCn2cc(CNC(=O)CC3CC3)nc2C1
measured on: Tyrosyl-tRNA synthetase, putative (Trypanosoma cruzi (strain CL Brener)) (UniProt Q4DSP6)
observed result: 16.7

compound: O=C(NC1(c2cccc(F)c2)CCOCC1)c1ccccn1
measured on: Tyrosyl-tRNA synthetase, putative (Trypanosoma cruzi (strain CL Brener)) (UniProt Q4DSP6)
observed result: -6.17
